assay: Further solubility testing of Compound I HCl Form I in solvents; type: physicochemical; conditions: MeOH/H2O, 4:1 (v/v), organic solvent or mixture
Counter-ions that a name gives are not always drawn.
metric name: solubility

Task: Recorded solubility for CCS(=O)(=O)N1CCN(c2ccc(Nc3ncc(C(N)=O)c(NC4CC4)n3)cc2)CC1 [Compound I HCl Form I] , please?
Output: < 2000 µg/mL

###

assay: Further solubility testing of Compound I HCl Form I in solvents; type: physicochemical; settings: NMP, organic solvent or mixture
Counter-ions that a name gives are not always drawn.
metric name: solubility

Task: Param item = CCS(=O)(=O)N1CCN(c2ccc(Nc3ncc(C(N)=O)c(NC4CC4)n3)cc2)CC1 [Compound I HCl Form I] ; retrieve measured solubility.
Output: 4000 to 6700 µg/mL

###

experiment: Further solubility testing of Compound I HCl Form I in solvents; format: physicochemical; settings: anisole, organic solvent or mixture
Structures can show the parent of a compound that is named as a salt.
metric name: solubility

Task: Which solubility value is on record for CCS(=O)(=O)N1CCN(c2ccc(Nc3ncc(C(N)=O)c(NC4CC4)n3)cc2)CC1 [Compound I HCl Form I] ?
Output: < 2300 µg/mL

###

Test: Approximate kinetic solubility in pharmaceutical co-solvents
Assay type: physicochemical
Settings: aqueous with cosolvent or surfactant or cyclodextrin, thermodynamic from solid; 20% Labrasol in aqueous solution, no-pH adjustment, 2 hrs.
From the text: A summary of the approximate kinetic solubility of Compound I HCl Form I in organic solvents, simulated biological fluids, and common pharmaceutical co-solvents is provided in Tables 8-10, respectively.
Where a name gives a salt, the structure may show the parent alone.
metric name: solubility kinetic at 2 h (µg/mL)
Answers are plain numbers, in µg/mL.

Task: Entry CCS(=O)(=O)N1CCN(c2ccc(Nc3ncc(C(N)=O)c(NC4CC4)n3)cc2)CC1 [Compound I HCl Form I] : reported solubility kinetic at 2 h = ?
Output: 1840

###

Assay: Approximate kinetic solubility in pharmaceutical co-solvents
Type: physicochemical
Details: aqueous with cosolvent or surfactant or cyclodextrin, thermodynamic from solid; 30% PEG in aqueous solution, no-pH adjustment, 2 hrs.
Text: A summary of the approximate kinetic solubility of Compound I HCl Form I in organic solvents, simulated biological fluids, and common pharmaceutical co-solvents is provided in Tables 8-10, respectively.
Where a name gives a salt, the structure may show the parent alone.
metric name: solubility kinetic at 2 h (µg/mL)
One number for each entry, in µg/mL.

Task: Entry CCS(=O)(=O)N1CCN(c2ccc(Nc3ncc(C(N)=O)c(NC4CC4)n3)cc2)CC1 [Compound I HCl Form I] : reported solubility kinetic at 2 h = ?
Output: 420

###

assay: Further solubility testing of Compound I HCl Form I in solvents; type: physicochemical; settings: EtOH/H2O, 4:1 (v/v), organic solvent or mixture
Where a name gives a salt, the structure may show the parent alone.
metric name: solubility

Task: Param item = CCS(=O)(=O)N1CCN(c2ccc(Nc3ncc(C(N)=O)c(NC4CC4)n3)cc2)CC1 [Compound I HCl Form I] ; retrieve measured solubility.
Output: < 2000 µg/mL

###

test: Approximate kinetic solubility in pharmaceutical co-solvents; format: physicochemical; settings: aqueous with cosolvent or surfactant or cyclodextrin, thermodynamic from solid; 40% HP-β-CD in aqueous solution, no-pH adjustment, 24 hrs.
Where a name gives a salt, the structure may show the parent alone.
metric name: solubility kinetic at 24 h
Please format your answer as a value with the unit trailing.

Task: Need solubility kinetic at 24 h, item CCS(=O)(=O)N1CCN(c2ccc(Nc3ncc(C(N)=O)c(NC4CC4)n3)cc2)CC1 [Compound I HCl Form I]
Output: 3840 µg/mL

###

assay: Approximate kinetic solubility in pharmaceutical co-solvents; format: physicochemical; settings: aqueous with cosolvent or surfactant or cyclodextrin, thermodynamic from solid; 3% HP-β-CD in aqueous solution, no-pH adjustment, 24 hrs.
Where a name gives a salt, the structure may show the parent alone.
metric name: solubility kinetic at 24 h (µg/mL)
Answers are plain numbers, in µg/mL.

Task: Data request, read-out solubility kinetic at 24 h, for CCS(=O)(=O)N1CCN(c2ccc(Nc3ncc(C(N)=O)c(NC4CC4)n3)cc2)CC1 [Compound I HCl Form I]
Output: 1120

###

assay: Further solubility testing of Compound I HCl Form I in solvents; type: physicochemical; conditions: n-heptane, organic solvent or mixture
Structures can show the parent of a compound that is named as a salt.
metric name: solubility

Task: Return reported solubility; argument: CCS(=O)(=O)N1CCN(c2ccc(Nc3ncc(C(N)=O)c(NC4CC4)n3)cc2)CC1 [Compound I HCl Form I]
Output: < 1900 µg/mL

###

experiment: Further solubility testing of Compound I HCl Form I in solvents; format: physicochemical; settings: DMSO, organic solvent or mixture
Counter-ions that a name gives are not always drawn.
metric name: solubility

Task: What does the data say about its solubility? Entry: CCS(=O)(=O)N1CCN(c2ccc(Nc3ncc(C(N)=O)c(NC4CC4)n3)cc2)CC1 [Compound I HCl Form I]
Output: > 36 mg/mL

###

experiment: Approximate kinetic solubility in pharmaceutical co-solvents; format: physicochemical; settings: aqueous with cosolvent or surfactant or cyclodextrin, thermodynamic from solid; 10% Labrasol in aqueous solution, no-pH adjustment, 7 days
Counter-ions that a name gives are not always drawn.
metric name: solubility kinetic at 7 days
Answer by giving the amount and then stating its unit.

Task: Any idea what its solubility kinetic at 7 days is? The molecule is CCS(=O)(=O)N1CCN(c2ccc(Nc3ncc(C(N)=O)c(NC4CC4)n3)cc2)CC1 [Compound I HCl Form I]
Output: 700 µg/mL

###

assay: Approximate kinetic solubility in pharmaceutical co-solvents; format: physicochemical; settings: aqueous with cosolvent or surfactant or cyclodextrin, thermodynamic from solid; 40% Captisol in aqueous solution, no-pH adjustment, 24 hrs.
Counter-ions that a name gives are not always drawn.
metric name: solubility kinetic at 24 h (µg/mL)
Give bare numbers, in µg/mL.

Task: Which measured solubility kinetic at 24 h value corresponds to CCS(=O)(=O)N1CCN(c2ccc(Nc3ncc(C(N)=O)c(NC4CC4)n3)cc2)CC1 [Compound I HCl Form I] ?
Output: 4400

###

assay: Further solubility testing of Compound I HCl Form I in solvents; type: physicochemical; settings: 1,4-dioxane, organic solvent or mixture
Where a name gives a salt, the structure may show the parent alone.
metric name: solubility

Task: What does the record list as solubility for CCS(=O)(=O)N1CCN(c2ccc(Nc3ncc(C(N)=O)c(NC4CC4)n3)cc2)CC1 [Compound I HCl Form I] ?
Output: < 2.1 mg/mL

###

Experiment: Approximate kinetic solubility in organic solvents
Type: physicochemical
Conditions: Acetone, MeCN, IPA, EtOAc, THF, Dioxane, DCM, organic solvent or mixture, kinetic from dmso stock
Source text: A summary of the approximate kinetic solubility of Compound I HCl Form I in organic solvents, simulated biological fluids, and common pharmaceutical co-solvents is provided in Tables 8-10, respectively.
Structures can show the parent of a compound that is named as a salt.
metric name: solubility kinetic

Task: Endpoint output: solubility kinetic of CCS(=O)(=O)N1CCN(c2ccc(Nc3ncc(C(N)=O)c(NC4CC4)n3)cc2)CC1 [Compound I HCl Form I] . Value?
Output: < 100 µg/mL

meta.source: patent US11713309B2
